Target: T1, EsCas13d, nuclease-dead (Eubacterium siraeum, UniProt B0MS50, R295A;H300A;R849A;H854A)
T1 sequence: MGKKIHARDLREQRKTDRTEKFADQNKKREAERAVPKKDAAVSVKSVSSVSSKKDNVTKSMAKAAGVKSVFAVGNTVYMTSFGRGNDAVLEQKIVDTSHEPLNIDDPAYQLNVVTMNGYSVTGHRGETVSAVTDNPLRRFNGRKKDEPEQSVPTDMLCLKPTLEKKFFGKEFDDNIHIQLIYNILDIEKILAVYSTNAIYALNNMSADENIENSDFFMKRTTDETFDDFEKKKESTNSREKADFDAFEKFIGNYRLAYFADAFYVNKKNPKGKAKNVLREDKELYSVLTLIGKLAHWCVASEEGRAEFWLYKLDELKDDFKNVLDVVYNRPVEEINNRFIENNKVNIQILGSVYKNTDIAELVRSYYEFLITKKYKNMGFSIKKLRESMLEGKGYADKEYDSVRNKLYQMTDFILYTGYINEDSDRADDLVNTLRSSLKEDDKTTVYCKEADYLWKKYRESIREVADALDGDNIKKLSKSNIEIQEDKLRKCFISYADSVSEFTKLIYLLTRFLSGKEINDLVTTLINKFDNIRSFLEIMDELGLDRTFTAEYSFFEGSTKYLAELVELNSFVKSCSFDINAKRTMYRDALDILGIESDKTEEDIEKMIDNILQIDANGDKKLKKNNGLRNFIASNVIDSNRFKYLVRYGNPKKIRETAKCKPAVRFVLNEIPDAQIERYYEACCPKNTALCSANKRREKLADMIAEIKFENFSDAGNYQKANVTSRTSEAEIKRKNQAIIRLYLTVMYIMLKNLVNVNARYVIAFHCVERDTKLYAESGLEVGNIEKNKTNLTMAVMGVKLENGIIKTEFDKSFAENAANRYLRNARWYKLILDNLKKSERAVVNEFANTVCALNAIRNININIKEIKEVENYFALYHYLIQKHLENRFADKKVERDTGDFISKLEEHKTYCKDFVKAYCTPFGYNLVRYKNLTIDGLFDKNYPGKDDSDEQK
Assay: crRNA (strand 1, pre-loaded); Mg2+; 40 mM Tris-HCl pH 7.5, 150 mM NaCl, 6 mM MgCl2, 1 mM DTT, 0.1% Tween-20, 0.2 mg/ml BSA; 25 C; 10 min per concentration, then washed
Conditions: tags: His6-TwinStrep-SUMO cleaved; N-terminal SNAP kept (SNAP-Surface 488); label: 3' end held by stalled T7 RNA polymerase
ASSAY_ENDPOINT: log10(Kd) (log10 of the value in nM)
Remember, log10 of Kd, in nM.

| BINDER | log10(Kd) |
| --- | --- |
| target 2 MT 5'PFS UCG 3'PFS CGA (mixed) RNA 1: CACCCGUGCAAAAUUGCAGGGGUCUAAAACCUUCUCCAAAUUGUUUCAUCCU RNA 2: GGGAAUGGAUCCACAUCUACGAAUUCUCGAGGAUGAAACAAUUUGGAGAAGCGAAGAUCGGAAGAGCACACGU | 1.52 |
| target 1 MT 5'PFS GGG 3'PFS CCG (mixed) RNA 1: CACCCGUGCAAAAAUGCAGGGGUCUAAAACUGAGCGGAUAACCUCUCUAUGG RNA 2: GGGAAUGGAUCCACAUCUACGAAUUCGGGCCAUAGAGAGGUUAUCCGCUCACCGAGAUCGGAAGAGCACACGU | 1.18 |
| target 1 insU 3' of 14,insG 3' of 3 (mixed) RNA 1: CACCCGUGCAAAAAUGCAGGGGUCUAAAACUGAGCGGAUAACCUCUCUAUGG RNA 2: GGGAAUGGAUCCACAUCUACGAAUUCGUACCAUAGAGAUGGUUAUCCGCUGCACCGAGAUCGGAAGAGCACACGU | 1.53 |
| target 2 MT 5'PFS GGA 3'PFS CUU (mixed) RNA 1: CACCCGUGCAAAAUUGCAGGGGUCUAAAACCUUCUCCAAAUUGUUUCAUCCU RNA 2: GGGAAUGGAUCCACAUCUACGAAUUCGGAAGGAUGAAACAAUUUGGAGAAGCUUAGAUCGGAAGAGCACACGU | 1.02 |
| target 1 G13A,U19A (mixed) RNA 1: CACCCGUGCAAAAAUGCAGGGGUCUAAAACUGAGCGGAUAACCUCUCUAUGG RNA 2: GGGAAUGGAUCCACAUCUACGAAUUCGUACCAAAGAGAAGUUAUCCGCUCACCGAGAUCGGAAGAGCACACGU | 1.58 |
| target 3 U2C,C6A (mixed) RNA 1: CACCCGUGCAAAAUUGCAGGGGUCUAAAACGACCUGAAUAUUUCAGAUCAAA RNA 2: GGGAAUGGAUCCACAUCUACGAAUUCGUUUUUGAUCUGAAAUAUUAAGGCCUGCAGAUCGGAAGAGCACACGU | 1.59 |
| target 1 insA 3' of 5,insG 3' of 1 (mixed) RNA 1: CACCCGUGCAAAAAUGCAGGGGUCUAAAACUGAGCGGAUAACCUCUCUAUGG RNA 2: GGGAAUGGAUCCACAUCUACGAAUUCGUACCAUAGAGAGGUUAUCCGACUCAGCCGAGAUCGGAAGAGCACACGU | 0.73 |

Field: next binder
Prompt: Can you share its log10(Kd)? I mean this binder: target 1 MT 5'PFS GUU 3'PFS AGG (mixed) RNA 1: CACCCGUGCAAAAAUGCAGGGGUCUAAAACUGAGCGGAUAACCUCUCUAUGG RNA 2: GGGAAUGGAUCCACAUCUACGAAUUCGUUCCAUAGAGAGGUUAUCCGCUCAAGGAGAUCGGAAGAGCACACGU
Response: 1.82
